Test system: PC-3 Human Prostate Carcinoma
Protocol summary: PC-3 xenograft
Format: in vivo, nude mice
Condition set: dEpoB 30 mg/kg 18 hr i.v. infusion, Taxol 16 mg/kg 6 hr infusion, VBL 2 and VP-16 25 mg/kg i.v. inj
Reported endpoint: Average Body Weight (change), Day 9 (g)

• C/C1=C/C[C@@H](/C(C)=C/c2csc(C)n2)OC(=O)C[C@H](O)C(C)(C)C(=O)[C@H](C)[C@@H](O)[C@@H](C)CCC1 = -2.2
• CC(=O)O[C@H]1C(=O)[C@@]2(C)[C@H]([C@H](OC(=O)c3ccccc3)[C@]3(O)C[C@H](OC(=O)[C@H](O)[C@@H](NC(=O)c4ccccc4)c4ccccc4)C(C)=C1C3(C)C)[C@]1(OC(C)=O)CO[C@@H]1C[C@@H]2O = -1.1
